- Target Or System: RecQ-like DNA helicase BLM (Homo sapiens) (UniProt P54132)
- Sequence (P54132 whole entry, looked up): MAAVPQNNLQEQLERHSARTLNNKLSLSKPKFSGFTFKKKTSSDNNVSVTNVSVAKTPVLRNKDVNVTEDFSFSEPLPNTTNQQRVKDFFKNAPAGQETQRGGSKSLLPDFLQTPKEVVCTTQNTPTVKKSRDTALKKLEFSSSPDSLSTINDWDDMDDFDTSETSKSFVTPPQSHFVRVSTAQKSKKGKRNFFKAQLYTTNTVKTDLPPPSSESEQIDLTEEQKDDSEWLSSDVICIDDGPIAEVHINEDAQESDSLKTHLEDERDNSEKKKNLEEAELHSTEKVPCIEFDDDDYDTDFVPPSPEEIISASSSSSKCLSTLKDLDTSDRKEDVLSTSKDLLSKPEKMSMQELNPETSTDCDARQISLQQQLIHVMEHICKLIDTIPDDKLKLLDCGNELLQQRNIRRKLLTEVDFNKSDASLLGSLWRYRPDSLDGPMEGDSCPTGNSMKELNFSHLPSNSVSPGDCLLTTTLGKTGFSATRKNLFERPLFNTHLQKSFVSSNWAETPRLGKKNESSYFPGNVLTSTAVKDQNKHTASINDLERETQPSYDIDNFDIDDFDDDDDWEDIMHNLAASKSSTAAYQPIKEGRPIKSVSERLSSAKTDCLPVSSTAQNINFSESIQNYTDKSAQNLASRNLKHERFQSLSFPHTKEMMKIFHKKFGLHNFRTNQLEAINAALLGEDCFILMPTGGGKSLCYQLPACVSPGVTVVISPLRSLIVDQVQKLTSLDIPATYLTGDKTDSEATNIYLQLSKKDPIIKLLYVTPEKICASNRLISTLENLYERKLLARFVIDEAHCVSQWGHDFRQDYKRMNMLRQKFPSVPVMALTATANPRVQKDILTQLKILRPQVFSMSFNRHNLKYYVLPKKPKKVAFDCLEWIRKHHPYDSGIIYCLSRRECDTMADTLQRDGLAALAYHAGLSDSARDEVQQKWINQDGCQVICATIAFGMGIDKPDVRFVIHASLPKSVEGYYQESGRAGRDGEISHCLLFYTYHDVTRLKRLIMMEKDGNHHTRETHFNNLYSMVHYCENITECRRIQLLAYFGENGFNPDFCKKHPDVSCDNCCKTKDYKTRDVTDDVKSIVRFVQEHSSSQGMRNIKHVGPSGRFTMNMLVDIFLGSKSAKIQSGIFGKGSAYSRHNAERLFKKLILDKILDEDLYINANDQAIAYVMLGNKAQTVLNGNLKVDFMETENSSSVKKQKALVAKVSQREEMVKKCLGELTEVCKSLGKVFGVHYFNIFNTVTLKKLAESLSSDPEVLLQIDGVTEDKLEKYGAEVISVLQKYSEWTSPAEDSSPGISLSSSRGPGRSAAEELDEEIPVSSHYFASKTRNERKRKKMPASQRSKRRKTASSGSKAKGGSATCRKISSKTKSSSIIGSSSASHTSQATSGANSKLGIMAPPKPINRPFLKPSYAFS
- Assay Explanation: qHTS Assay for Inhibitors of Bloom's syndrome helicase (BLM); note: nearly all actives have a fitted effect of over 35% in size
- Assay Setup: recombinant BLM DNA unwinding, fluorescence dequenching; series mostly up to 56.1 µM
Screen size: about 350,000 compounds; about 700 (0.2%) were called active. Calls come from the whole dose curve; as a rule, active = well fitted inhibition curve with a large enough effect; inconclusive = small, poorly fitted or top-dose-only effect; inactive = flat fitted curve, though single readings scatter. The list comes from a sample in which actives are over-represented; it also holds close analogues and randomly drawn compounds.
Labels: label 1 for active, label 0 for inactive

COc1ccc(OC)c2sc(N3CCN(C(=O)C4COc5ccccc5O4)CC3)nc12 (stereo not given): label 0
CC1(C)C=CC(=O)[C@]2(C)C1CC(=O)[C@]1(C)C2CC[C@@]2(C)C(c3ccoc3)OC(=O)C3OC321 (stereo not given in full): label 0
FC(F)(F)c1ccccc1-c1nc(-n2ccnc2)c2ccccc2n1: label 0
CC(C)C(N)C(=O)OCCOCn1cnc2c(=O)[nH]c(N)nc21 (stereo not given): label 0
C/C=C(\C)C(=O)OC1C(OC(=O)C2(C)OC2C)c2cc3ccc(=O)oc3cc2OC1(C)C (stereo not given): label 0
C=C/C1=C/Cc2ccccc2[C@H](C[N+](=O)[O-])C(C(=O)OC)(C(=O)OC)C1: label 0
COc1ccc(N2CCN(C(=O)CSCc3nc(-c4ccccc4Cl)oc3C)CC2)cc1: label 0
O=C(O)C[C@@H]1NC(=O)[C@H](Cc2ccccc2)NC1=O: label 0
Cc1ccc(-c2ncc(Cl)cc2-c2ccc(S(C)(=O)=O)cc2)cn1: label 0
CC(C)=CC1C(C(=O)O)C1(C)C (stereo not given): label 0
COc1cccc(-c2cc(=O)c3cc(NC(=O)c4ccc(C)cc4)ccc3[nH]2)c1: label 0
O=C(c1cnccn1)N1CCC2(CCN(Cc3cc(C(F)(F)F)cc(C(F)(F)F)c3)CC2)CC1: label 0
O=C(Nc1cc(C(=O)Nc2ccc(S(=O)(=O)O)cc2)cc(C(=O)Nc2ccc(S(=O)(=O)O)cc2)c1)Nc1cc(C(=O)Nc2ccc(S(=O)(=O)O)cc2)cc(C(=O)Nc2ccc(S(=O)(=O)O)cc2)c1: label 0
COc1ccc(-c2nc3ccc(C(=O)NCc4ccc(C)cc4)cc3nc2-c2ccc(OC)cc2)cc1: label 0
CCOc1ccc(NC(=O)c2ncoc2-c2ccco2)cc1: label 0
CCCn1c(C)nc2c(NCCCCN(CC)CC)nc(C)nc21: label 0
CCCC[C@H]1C(=O)N(c2ccccc2)N(c2ccc(O)cc2)C1=O: label 0
O=C(Nc1cccc(F)c1)N1CCC2(CC1)CCN(S(=O)(=O)c1ccccc1)CC2: label 0
COc1cccc(S(=O)(=O)NCc2ccc(C(=O)NCc3ccccn3)cc2)c1: label 0
COCCNC(=O)Nc1ccc2nc(-c3ccco3)c(-c3ccco3)nc2c1: label 1

###

- Target Or System: RecQ-like DNA helicase BLM (Homo sapiens) (UniProt P54132)
- Assay Explanation: qHTS Assay for Inhibitors of Bloom's syndrome helicase (BLM); note: nearly all actives have a fitted effect of over 35% in size; note: potency is the fitted concentration of half-maximal effect
- Assay Setup: recombinant BLM DNA unwinding, fluorescence dequenching; series mostly up to 56.1 µM
Among all 350,000 compounds or so, about 700 (0.2%) were called active. This is one part of a sample in which actives are shown more often than they occur.
Readout Type: Potency

COc1ccc(Nc2ncc3c(n2)CCN(C(=O)OC(C)(C)C)C3)cc1: inactive
COc1ccc(-c2nc3c(c(SCC(=O)Nc4ccc(C(=O)O)cc4)n2)Cc2ccccc2O3)cc1: 7.08 µM (active)
COc1cccc(-c2cc(NCCc3c[nH]c4ccc(OC)cc34)ncn2)c1: inactive
CCCS(=O)(=O)c1ncc(Cl)c(C(=O)Nc2scc(-c3ccccc3)c2C(=O)OCC)n1: inactive
C=CCC(C)(O)c1ccco1 (stereo not given): inactive
